- Test system: Serratia marcescens
- EXPERIMENTAL PROTOCOL: MIC against Gram-negative bacteria: Serratia marcescens
- Format: cell-based
- CONDITIONS: Serratia marcescens; 5×10^5 CFU/mL; 10 h cultivation at 37° C.
# reported MIC against S. marcescens; entries follow
RECORDED METRIC: MIC against S. marcescens (µg/mL)

substance="PRT1460 (CDCDTVGTRNGSILCDQIGGQCNCKRHVSGRQCNQCQNGFYNLQELDPDGCSP; listed as Homo sapiens)" recorded_metric="MIC against S. marcescens" unit_abbreviation=µg/mL quantitative_readout=50
substance="PRT1434 (DVDECKYHPCYPGVHCINLSPGFRCDACPVGFTGPMVQ; listed as Homo sapiens)" recorded_metric="MIC against S. marcescens" unit_abbreviation=µg/mL quantitative_readout=12.5
substance="PRT1387 (IMDDCSTNCNGNGECISGHCHCFPGFLGPDCA; listed as Homo sapiens)" recorded_metric="MIC against S. marcescens" unit_abbreviation=µg/mL quantitative_readout=25
substance="PRT1463 (CDCDTAGSLPGTVCNAKTGQCICKPNVEGRQCNKCLEGNFYLRQNNSFLCLP; listed as Homo sapiens)" recorded_metric="MIC against S. marcescens" unit_abbreviation=µg/mL quantitative_readout=12.5
